# assayTarget: Delta-type opioid receptor (Homo sapiens, UniProt P41143)
# Sequence (P41143 whole entry): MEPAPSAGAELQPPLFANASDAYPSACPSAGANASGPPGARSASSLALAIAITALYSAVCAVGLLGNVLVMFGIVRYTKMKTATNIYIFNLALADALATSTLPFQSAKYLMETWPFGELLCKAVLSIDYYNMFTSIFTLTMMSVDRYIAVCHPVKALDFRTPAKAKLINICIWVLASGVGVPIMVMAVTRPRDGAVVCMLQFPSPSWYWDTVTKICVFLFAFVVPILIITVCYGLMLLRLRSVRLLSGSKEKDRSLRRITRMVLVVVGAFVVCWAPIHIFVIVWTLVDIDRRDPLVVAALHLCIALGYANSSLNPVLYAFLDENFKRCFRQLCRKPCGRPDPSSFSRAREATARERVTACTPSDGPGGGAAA
# assayProtocol: Displacement of [3H]naltrindole from human delta opioid receptor expressed in CHO cell membranes after 3 hrs by scintillation counting
pKi: −log10 of the molar value.
Cut-off 7 on pKi, inclusive. At or above means YES; below means NO.

[[record]]
compound = "OC(COc1ccc(Cc2ccc(OCC(O)COc3ccc4c(c3)[C@@]35CCCC[C@H]3[C@@H](C4)N(CC3CCC3)CC5)cc2)cc1)COc1ccc2c(c1)[C@@]13CCCC[C@H]1[C@@H](C2)N(CC1CCC1)CC3 (stereo not given in full)"
assaytarget = "Delta-type opioid receptor (Homo sapiens, UniProt P41143)"
class = "YES"

[[record]]
compound = "c1cc2c(cc1OCC1CO1)[C@@]13CCCC[C@H]1[C@@H](C2)N(CC1CCC1)CC3 (stereo not given in full)"
assaytarget = "Delta-type opioid receptor (Homo sapiens, UniProt P41143)"
class = "NO"


Item OC(CCC(O)COc1ccc2c(c1)[C@@]13CCCC[C@H]1[C@@H](C2)N(CC1CCC1)CC3)COc1ccc2c(c1)[C@@]13CCCC[C@H]1[C@@H](C2)N(CC1CCC1)CC3 (stereo not given in full) with pKi of 7 or above?
NO

###

Mu-type opioid receptor (Homo sapiens, UniProt P35372) data, read-out pKi
Sequence (P35372 whole entry): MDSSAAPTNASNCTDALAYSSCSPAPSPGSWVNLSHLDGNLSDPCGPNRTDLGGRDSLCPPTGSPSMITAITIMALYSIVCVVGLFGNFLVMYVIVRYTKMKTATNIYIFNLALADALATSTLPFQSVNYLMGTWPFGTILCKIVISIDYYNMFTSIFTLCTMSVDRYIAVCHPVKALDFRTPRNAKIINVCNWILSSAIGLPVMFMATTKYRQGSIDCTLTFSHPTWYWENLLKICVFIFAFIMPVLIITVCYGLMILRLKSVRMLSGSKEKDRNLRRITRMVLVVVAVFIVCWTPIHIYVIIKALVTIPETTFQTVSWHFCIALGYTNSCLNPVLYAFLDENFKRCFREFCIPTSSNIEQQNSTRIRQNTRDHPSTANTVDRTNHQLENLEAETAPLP
One number for each entry, as −log10 of the molar value.

[[record]]
compound = "CCCCCCCCC(O)COc1ccc2c(c1)[C@@]13CCCC[C@H]1[C@@H](C2)N(CC1CCC1)CC3 (stereo partly specified)"
measurementkind = "pKi"
reportedvalue = 8.13

[[record]]
compound = "c1cc2c(cc1OCCCOc1ccc3c(c1)[C@@]14CCCC[C@H]1[C@@H](C3)N(CC1CCC1)CC4)[C@@]13CCCC[C@H]1[C@@H](C2)N(CC1CCC1)CC3"
measurementkind = "pKi"
reportedvalue = 8.15

[[record]]
compound = "OC(COc1ccc(Cc2ccc(OCC(O)COc3ccc4c(c3)[C@@]35CCCC[C@H]3[C@@H](C4)N(CC3CCC3)CC5)cc2)cc1)COc1ccc2c(c1)[C@@]13CCCC[C@H]1[C@@H](C2)N(CC1CCC1)CC3 (stereo partly specified)"
measurementkind = "pKi"
reportedvalue = 9.62

[[record]]
compound = "c1cc2c(cc1OCC1CO1)[C@@]13CCCC[C@H]1[C@@H](C2)N(CC1CCC1)CC3 (stereo partly specified)"
measurementkind = "pKi"
reportedvalue = 8.14

[[record]]
compound = "OC(COc1ccccc1)COc1ccc2c(c1)[C@@]13CCCC[C@H]1[C@@H](C2)N(CC1CCC1)CC3 (stereo partly specified)"
measurementkind = "pKi"
reportedvalue = 8.19


Now for another entry.
Fill in the blank: the reported pKi of OC(CCC(O)COc1ccc2c(c1)[C@@]13CCCC[C@H]1[C@@H](C2)N(CC1CCC1)CC3)COc1ccc2c(c1)[C@@]13CCCC[C@H]1[C@@H](C2)N(CC1CCC1)CC3 (stereo partly specified) is ____.
7.77

###

# Species: Homo sapiens
# assayProtocol: Selectivity ratio of Ki for human kappa opioid receptor to Ki for human mu opioid receptor
Cut-off 5 on Ratio Ki, inclusive. At or above means Criterion met; below means Criterion not met.

Here are 3 molecules together with their reported answers.
[[record]]
molecule = "CCCCCCCCC(O)COc1ccc2c(c1)[C@@]13CCCC[C@H]1[C@@H](C2)N(CC1CCC1)CC3 (stereo not given in full)"
class = "Criterion not met"

[[record]]
molecule = "OC(COc1ccccc1)COc1ccc2c(c1)[C@@]13CCCC[C@H]1[C@@H](C2)N(CC1CCC1)CC3 (stereo not given in full)"
class = "Criterion met"

[[record]]
molecule = "OC(COc1ccc(Cc2ccc(OCC(O)COc3ccc4c(c3)[C@@]35CCCC[C@H]3[C@@H](C4)N(CC3CCC3)CC5)cc2)cc1)COc1ccc2c(c1)[C@@]13CCCC[C@H]1[C@@H](C2)N(CC1CCC1)CC3 (stereo not given in full)"
class = "Criterion not met"


Here is another molecule to look at.
Item `c1cc2c(cc1OCCCCCCCCCCOc1ccc3c(c1)[C@@]14CCCC[C@H]1[C@@H](C3)N(CC1CCC1)CC4)[C@@]13CCCC[C@H]1[C@@H](C2)N(CC1CCC1)CC3` with Ratio Ki of 5 or above?
Criterion not met

###

Would you mind telling me the reported Ratio Ki of each entry?
# Species: Homo sapiens
# assayProtocol: Selectivity ratio of Ki for human mu opioid receptor to Ki for human kappa opioid receptor
Give bare numbers.

Guide cases for Ratio Ki, answers given:
[[record]]
compound = "OC(COc1ccc2c(c1)[C@@]13CCCC[C@H]1[C@@H](C2)N(CC1CCC1)CC3)CC(O)COc1ccc2c(c1)[C@@]13CCCC[C@H]1[C@@H](C2)N(CC1CCC1)CC3 (stereo partly drawn)"
measurementkind = "Ratio Ki"
reportedvalue = 7

[[record]]
compound = "c1cc2c(cc1OCCCCOc1ccc3c(c1)[C@@]14CCCC[C@H]1[C@@H](C3)N(CC1CCC1)CC4)[C@@]13CCCC[C@H]1[C@@H](C2)N(CC1CCC1)CC3"
measurementkind = "Ratio Ki"
reportedvalue = 1.6


// for each compound in input: emit Ratio Ki
1. CCCCCCCCCCOc1ccc2c(c1)[C@@]13CCCC[C@H]1[C@@H](C2)N(CC1CCC1)CC3
2. c1cc2c(cc1OCCCOc1ccc3c(c1)[C@@]14CCCC[C@H]1[C@@H](C3)N(CC1CCC1)CC4)[C@@]13CCCC[C@H]1[C@@H](C2)N(CC1CCC1)CC3
3. OC(CCCCCC(O)COc1ccc2c(c1)[C@@]13CCCC[C@H]1[C@@H](C2)N(CC1CCC1)CC3)COc1ccc2c(c1)[C@@]13CCCC[C@H]1[C@@H](C2)N(CC1CCC1)CC3 (stereo partly drawn)
4. OC(CCCCCCC(O)COc1ccc2c(c1)[C@@]13CCCC[C@H]1[C@@H](C2)N(CC1CCC1)CC3)COc1ccc2c(c1)[C@@]13CCCC[C@H]1[C@@H](C2)N(CC1CCC1)CC3 (stereo partly drawn)
5. OC(CCCC(O)COc1ccc2c(c1)[C@@]13CCCC[C@H]1[C@@H](C2)N(CC1CCC1)CC3)COc1ccc2c(c1)[C@@]13CCCC[C@H]1[C@@H](C2)N(CC1CCC1)CC3 (stereo partly drawn)
6. OC(CCC(O)COc1ccc2c(c1)[C@@]13CCCC[C@H]1[C@@H](C2)N(CC1CCC1)CC3)COc1ccc2c(c1)[C@@]13CCCC[C@H]1[C@@H](C2)N(CC1CCC1)CC3 (stereo partly drawn)

1: 1.3; 2: 1.1; 3: 1.2; 4: 1.7; 5: 1.2; 6: 1.4

###

Would you mind telling me the reported Ki of each entry?
# assayTarget: Delta-type opioid receptor (Homo sapiens)
# assayProtocol: Displacement of [3H]naltrindole from human delta opioid receptor expressed in CHO cell membranes after 3 hrs by scintillation counting

Guide cases for Ki, answers given:
[[record]]
molecule = "OC(CCCC(O)COc1ccc2c(c1)[C@@]13CCCC[C@H]1[C@@H](C2)N(CC1CCC1)CC3)COc1ccc2c(c1)[C@@]13CCCC[C@H]1[C@@H](C2)N(CC1CCC1)CC3 (stereo partly drawn)"
reportedvalue = "0.16 µM"

[[record]]
molecule = "OC(COc1ccc2c(c1)[C@@]13CCCC[C@H]1[C@@H](C2)N(CC1CCC1)CC3)CC(O)COc1ccc2c(c1)[C@@]13CCCC[C@H]1[C@@H](C2)N(CC1CCC1)CC3 (stereo partly drawn)"
reportedvalue = "0.033 µM"

[[record]]
molecule = "OC(COc1ccc2c(c1)[C@@]13CCCC[C@H]1[C@@H](C2)N(CC1CCC1)CC3)COc1ccc2c(c1)[C@@]13CCCC[C@H]1[C@@H](C2)N(CC1CCC1)CC3"
reportedvalue = "0.037 µM"

[[record]]
molecule = "CCCCCCCCC(O)COc1ccc2c(c1)[C@@]13CCCC[C@H]1[C@@H](C2)N(CC1CCC1)CC3 (stereo partly drawn)"
reportedvalue = "0.052 µM"

[[record]]
molecule = "c1cc2c(cc1OCCCOc1ccc3c(c1)[C@@]14CCCC[C@H]1[C@@H](C3)N(CC1CCC1)CC4)[C@@]13CCCC[C@H]1[C@@H](C2)N(CC1CCC1)CC3"
reportedvalue = "0.18 µM"


// for each molecule in input: emit Ki
1. OC(CCCCCCC(O)COc1ccc2c(c1)[C@@]13CCCC[C@H]1[C@@H](C2)N(CC1CCC1)CC3)COc1ccc2c(c1)[C@@]13CCCC[C@H]1[C@@H](C2)N(CC1CCC1)CC3 (stereo partly drawn)
2. OC(COc1ccccc1)COc1ccc2c(c1)[C@@]13CCCC[C@H]1[C@@H](C2)N(CC1CCC1)CC3 (stereo partly drawn)
3. CCCCCCCCCC(=O)Oc1ccc2c(c1)[C@@]13CCCC[C@H]1[C@@H](C2)N(CC1CCC1)CC3

["0.027 µM", "0.086 µM", "0.02 µM"]
